target: CYP2C9 (Homo sapiens)
Sequence (P11712 whole entry): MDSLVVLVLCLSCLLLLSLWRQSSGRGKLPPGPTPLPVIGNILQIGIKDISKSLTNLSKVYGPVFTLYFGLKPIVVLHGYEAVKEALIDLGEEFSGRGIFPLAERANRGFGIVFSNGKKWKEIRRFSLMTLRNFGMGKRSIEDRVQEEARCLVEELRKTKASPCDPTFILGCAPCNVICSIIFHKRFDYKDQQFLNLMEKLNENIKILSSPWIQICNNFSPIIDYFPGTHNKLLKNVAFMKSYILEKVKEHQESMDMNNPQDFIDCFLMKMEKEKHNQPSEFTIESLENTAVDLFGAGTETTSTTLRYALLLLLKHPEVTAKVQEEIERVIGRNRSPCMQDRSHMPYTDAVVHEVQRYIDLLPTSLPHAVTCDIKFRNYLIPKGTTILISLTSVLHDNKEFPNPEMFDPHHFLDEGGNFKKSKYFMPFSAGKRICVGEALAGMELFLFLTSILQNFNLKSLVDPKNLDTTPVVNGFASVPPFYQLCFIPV
pIC50: −log10 of the molar value.
parameter.measured: pIC50

molecule="O=C(Cc1ccc2c(c1)OCCO2)Nc1nc(-c2ccc3c(c2)CCC(=O)N3)cs1 [Compound (If)]" experimental_result="< 5.00"

###

target: CYP2D6 (Homo sapiens)
Sequence (P10635 whole entry): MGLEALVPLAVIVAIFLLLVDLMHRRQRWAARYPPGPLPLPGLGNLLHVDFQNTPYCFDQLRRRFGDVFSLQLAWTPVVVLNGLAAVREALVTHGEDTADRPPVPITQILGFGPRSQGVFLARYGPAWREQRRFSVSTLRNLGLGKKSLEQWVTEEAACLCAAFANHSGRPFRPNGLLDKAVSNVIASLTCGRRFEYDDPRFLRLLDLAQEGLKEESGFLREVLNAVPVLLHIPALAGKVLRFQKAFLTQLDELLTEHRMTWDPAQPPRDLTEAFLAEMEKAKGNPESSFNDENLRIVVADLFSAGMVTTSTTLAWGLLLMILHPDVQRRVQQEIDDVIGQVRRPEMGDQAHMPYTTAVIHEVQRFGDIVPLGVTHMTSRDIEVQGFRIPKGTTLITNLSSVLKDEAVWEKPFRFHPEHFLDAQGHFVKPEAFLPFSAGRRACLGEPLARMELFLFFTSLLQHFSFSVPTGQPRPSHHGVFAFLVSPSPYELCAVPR
pIC50: −log10 of the molar value.
parameter.measured: pIC50

molecule=O=C(Cc1ccc2c(c1)OCCO2)Nc1nc(-c2ccc3c(c2)CCC(=O)N3)cs1 experimental_result="< 5.00"

###

experiment: solubility by nephelometry; conditions: 1% dmso/pbs, 37 °C, aqueous buffer, kinetic from dmso stock
parameter.measured: solubility at 2 h

molecule=O=C(Cc1ccc2c(c1)OCCO2)Nc1nc(-c2ccc3c(c2)CCC(=O)N3)cs1 experimental_result="61.5 µM"

Where do the numbers come from? From patent EP4420661B1.
